- system: NP-1 (Homo sapiens)
- Sequence (O14786 22-923): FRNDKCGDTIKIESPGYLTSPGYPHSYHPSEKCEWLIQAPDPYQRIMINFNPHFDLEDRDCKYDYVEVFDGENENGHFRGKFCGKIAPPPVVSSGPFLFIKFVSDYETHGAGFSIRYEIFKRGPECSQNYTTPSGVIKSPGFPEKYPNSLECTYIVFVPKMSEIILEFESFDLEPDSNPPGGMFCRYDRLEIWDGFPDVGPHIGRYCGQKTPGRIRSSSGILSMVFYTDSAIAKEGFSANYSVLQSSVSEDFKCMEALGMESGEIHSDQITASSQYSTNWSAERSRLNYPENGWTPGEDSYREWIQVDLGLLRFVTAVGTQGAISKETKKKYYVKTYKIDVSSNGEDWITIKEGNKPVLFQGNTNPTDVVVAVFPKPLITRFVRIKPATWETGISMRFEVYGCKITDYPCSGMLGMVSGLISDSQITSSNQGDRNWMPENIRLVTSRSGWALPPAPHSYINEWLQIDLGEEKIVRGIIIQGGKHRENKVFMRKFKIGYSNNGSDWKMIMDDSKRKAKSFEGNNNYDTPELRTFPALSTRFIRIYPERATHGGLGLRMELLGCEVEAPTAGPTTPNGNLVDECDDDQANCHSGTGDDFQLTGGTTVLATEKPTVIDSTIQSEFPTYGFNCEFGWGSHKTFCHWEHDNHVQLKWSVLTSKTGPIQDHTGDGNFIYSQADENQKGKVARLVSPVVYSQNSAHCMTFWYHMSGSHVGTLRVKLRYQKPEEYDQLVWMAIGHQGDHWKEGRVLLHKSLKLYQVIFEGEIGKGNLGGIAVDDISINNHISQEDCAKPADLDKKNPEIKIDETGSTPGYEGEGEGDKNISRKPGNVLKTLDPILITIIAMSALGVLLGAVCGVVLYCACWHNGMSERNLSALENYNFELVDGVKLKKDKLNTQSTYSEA
- experimentSummary: Biotinylated-VEGF-A165 (bt-VEGF-A165) binding to NP-1
- assayConditions: 30 μM compound, read-out: Screen (% inhibition at 30 μM)
Reported inhibition at 30 µM values follow for various compounds

>  <compound>
N=C(N)NCCC[C@H](NC(=O)c1sccc1NS(=O)(=O)c1cc(-c2ccccc2CN2CCN(Cc3ccncc3)CC2)cc2c1OCC2)C(=O)O [Compound 8]

>  <inhibition at 30 µM>
90%

$$$$
>  <compound>
N=C(N)NCCC[C@H](NC(=O)c1sccc1NS(=O)(=O)c1cc(-c2cccc(CNCc3ncc[nH]3)c2)cc2c1OCC2)C(=O)O [Compound 37]

>  <inhibition at 30 µM>
90%

$$$$
>  <compound>
N=C(N)NCCC[C@H](NC(=O)c1sccc1NS(=O)(=O)c1cccc(NCc2csc(N3CCN(c4ccccn4)CC3)n2)c1)C(=O)O [Compound 63]

>  <inhibition at 30 µM>
83%

$$$$
>  <compound>
Cc1cc(CNCc2ccccc2-c2cc3c(c(S(=O)(=O)Nc4ccsc4C(=O)N[C@@H](CCCNC(=N)N)C(=O)O)c2)OCC3)no1 [Compound 26]

>  <inhibition at 30 µM>
100%

$$$$
>  <compound>
Cn1cncc1CNCc1cccc(-c2cc3c(c(S(=O)(=O)Nc4ccsc4C(=O)N[C@@H](CCCNC(=N)N)C(=O)O)c2)OCC3)c1 [Compound 36]

>  <inhibition at 30 µM>
98%

$$$$
